Tested on: M. smegmatis
experiment_summary: Spectrum of activity: M. smegmatis growth inhibition
Format: cell-based
experimental_context: Mycolicibacterium smegmatis, 24 h; 1 day; read-out: Antibacterial activity (MIC50) M. smegmatis
Criterion: MIC50 strictly less than 400 µM. Met: T. Not met: F.

Request: Here's an entry: COC(=O)c1sc2ccccc2c1O . Is its MIC50 below 400 µM?
Result: F

Request: Report whether reported MIC50 is lower than 400 µM (strictly) for O=C(O)CCc1c[nH]c2ccccc12
Result: F

Request: Is 400 µM strictly greater than the compound's reported MIC50? compound: O=C(O)c1csc2ccc(Cl)cc12
Result: T

Request: Quick check: MIC50 of Nc1ccc2oc3c(c2c1)CCCC3 under 400 µM?
Result: F

Request: Hi there! Is MIC50 for O=C(O)c1ccc(-c2cccs2)s1 [Fragment F20, [2,2′-Bithiophene]-5-carboxylic acid] below 400 µM, do you know?
Result: T

Request: Could you please tell me whether MIC50 recorded for O=C(O)c1ccc(-c2ccccc2)s1 is less than 400 µM?
Result: T

Request: Criterion: MIC50 strictly below 400 µM. Is it met by Cc1oc(-c2ccc(Cl)cc2)cc1C(=O)N(C)C ?
Result: T

Request: In the record for CCOC(=O)c1c(N)sc(C)c1-c1ccccc1 , is MIC50 less than 400 µM?
Result: F

Request: Does the reported MIC50 of O=c1cc(C(F)(F)F)c2ccc(O)cc2o1 stay below 400 µM?
Result: F

Data origin: paper PMC5826148
